Taken from BindingDB's records for doi:10.1021/ml400370w.

assay: Antagonist activity against CCR5 receptor in human TZM-bl cells assessed as inhibition of HIV-1 JR-FL-induced cell-cell fusion between viral envelope protein expressing human HEK293 cells to TZM-bl cells after 48 hrs by luciferase reporter gene assay
readout: IC50 (nM)

1. Cc1nnc(CCCCCCCCCCN=[N+]=[N-])n1C1CC2CCC(C1)N2CC[C@H](NC(=O)C1CCC(F)(F)CC1)c1ccccc1 (stereo partly specified)
0.96
2. Cc1nnc(C(C)C)n1C1CC2CCC(C1)N2CC[C@H](NC(=O)CCCCCCCCCCN=[N+]=[N-])c1ccccc1 (stereo partly specified)
360
3. Cc1nnc(CCCCCCCCCCn2cc(COCCOCCOCCOCCOCc3ccc(C(=O)NCCCNC(=O)OC(C)(C)C)cc3)nn2)n1C1CC2CCC(C1)N2CC[C@H](NC(=O)C1CCC(F)(F)CC1)c1ccccc1 (stereo partly specified)
3
4. Cc1nnc(C(C)C)n1C1CC2CCC(C1)N2CC[C@H](NC(=O)CCCCCCCCCCn1cc(COCCOCCOCCOCCOCc2ccc(C(=O)N3CCC3=O)cc2)nn1)c1ccccc1 (stereo partly specified)
27
5. Cc1nnc(CCCCCCCCCCn2cc(COCCOCCOCCOCCOCc3ccc(C(=O)N4CCC4=O)cc3)nn2)n1C1CC2CCC(C1)N2CC[C@H](NC(=O)C1CCC(F)(F)CC1)c1ccccc1 (stereo partly specified)
2.6
